Data origin, for the record: BigSolDB 2.1

# Measurement Parameters: in dimethyl carbonate, 298.15 K
Assay Endpoint: solubility (mole fraction)
No unit in the answer, only the number.

Sample `COC(=O)NCCCCCCNC(=O)OC` — what was its solubility (mole fraction)? 0.00596

====

# Measurement Parameters: in water, 323.15 K
Assay Endpoint: solubility (mole fraction)
Answer with the value's number alone.

Requested read-out: solubility (mole fraction). Entry: `COC(=O)NCCCCCCNC(=O)OC` 0.00025
